// provenance: the supplement of paper PMC12636428

Examples of sequences with documented transcriptional activation domain activity follow.
Tested on: Saccharomyces cerevisiae
Assay Details: transcriptional activation domain activity (GFP:mCherry ratio, weighted mean of sorted bins, harmonized to initial dataset scale) (arbitrary fluorescence ratio units); higher = stronger transcriptional activation
Condition Label: beta-estradiol 1 µM; induction time 4 h
Metric Name: transcriptional activation domain activity

[[record]]
sequence_string = "PPCLKLAGWLAFVVGSFCQSTNLVVIQISQNNWDCFSIWRTLILLVIFFSLPA"
reading = 58500

[[record]]
sequence_string = "IPSHQFAFGRFMALSSTLGCKFFFSSFNSFFYIFFITLFFSLLLLPFFKNLFF"
reading = 39300

[[record]]
sequence_string = "MAPTTPTNSNGETPVKRGRGRPPKPEHEKKLKPAPSGRGRGRPKGSGVKKTGG"
reading = 39100


###

Tested on: Saccharomyces cerevisiae
Assay Details: transcriptional activation domain activity (GFP:mCherry ratio, weighted mean of sorted bins, harmonized to initial dataset scale) (arbitrary fluorescence ratio units); higher = stronger transcriptional activation
Condition Label: beta-estradiol 1 µM; induction time 4 h
Metric Name: transcriptional activation domain activity

[[record]]
sequence_string = "PEPVSEEPKAESSRTATAPPSLARRAASYFVSSFRGRTLHGTKIDVPDGYTGL"
measurement_target = "Saccharomyces cerevisiae"
reading = 49000

[[record]]
sequence_string = "MIGHWFVLLNLISNWIVLSSFSILFYIYIYMPLYCHYAPFIFMLFLLYIPLLI"
measurement_target = "Saccharomyces cerevisiae"
reading = 48800

[[record]]
sequence_string = "CDSVYLHQDQCAHVLEYCMDATPGLINYIQLYFCSPIKPFIFLIMCCWLLFLF"
measurement_target = "Saccharomyces cerevisiae"
reading = 51500


###

Test system: Saccharomyces cerevisiae
Assay Details: transcriptional activation domain activity (GFP:mCherry ratio, weighted mean of sorted bins, harmonized to initial dataset scale) (arbitrary fluorescence ratio units); higher = stronger transcriptional activation
Condition Label: beta-estradiol 1 µM; induction time 4 h
Label scheme for transcriptional activation domain activity: lower than 40000 is 0.0, 40000 and above is 1.0.

[[record]]
sequence_string = "LLVANLTILDTFGLEESAIRIWNVCKPLGHLGQNALLILMLRLKDTMLIPWPL"
category = 1.0

[[record]]
sequence_string = "MFLLLKYDFSLTDLLRILLRLNMFPILLSFIMDRPYTSYTLPWLISFWYLVFF"
category = 1.0

[[record]]
sequence_string = "KAAAMKKVLAKPADKTKKTSSAKNDTKKAAAKAAATKPKARTTKTAKAAAATK"
category = 0.0

[[record]]
sequence_string = "KCSKVEPWVINVAAVFPSVFLLGFVENFFWFRRMMLGKGCLRFGTVCWALLFI"
category = 1.0

[[record]]
sequence_string = "DMKDRGLFQCNPYRYAKECCRFVGLFYTAIWLVLRGTHIGHYVISATCLAVLW"
category = 1.0

[[record]]
sequence_string = "YLEWLLLHHIHTIVGRRKDINWHIVCMDRWNIWYNTLRLSDTFALVGIIISIF"
category = 1.0

[[record]]
sequence_string = "PQSEKSFKSAKNAPEKRAEERPRRRKTCARQNMRTNTNAAHTAHATGAITRRI"
category = 0.0

[[record]]
sequence_string = "RKDRKDRTRKERRDRHDDGRRHRHRRSSRSRSRDRRDRKHDRSRSRDRRKDGD"
category = 0.0

[[record]]
sequence_string = "TGYKKKKLGHPSEKVVERHASCEPGTRLYSQKLFGRYVLRLLFVVAYMFVKSF"
category = 0.0

[[record]]
sequence_string = "KPLSIILGLVNVFVLYNYLSTGVSLWMISLRFSSFSCRFLADVFSCLLVFLLC"
category = 1.0

[[record]]
sequence_string = "LLQSSKEDIPFINANLAFPDDNSTNIQLQPFSESQSQNKFDYDMFFRDSSKEG"
category = 1.0

[[record]]
sequence_string = "PLEYFDIKALSALIVFDEFPNYIIGLLLQSYPELVHGTFMPYIECMLFTMNPL"
category = 1.0

[[record]]
sequence_string = "MELSFFSVSSDGDLFFLLLFLIRGVLEKYFFDWYFDLPLWVFVCFFLFVFLTL"
category = 1.0

[[record]]
sequence_string = "RFLSFLLLLLVFFYPFVFFVLALVLCTFWSLFPSNTPLHSLVCRLQLLHPFVF"
category = 1.0

